Assayed system: human CMV DNA polymerase UL54 (Human cytomegalovirus (strain AD169) (HHV-5) (Human herpesvirus 5), UniProt P08546)
Protocol details: CMV polymerase biochemical assay (molecular beacon-based)
Experimental: Both human CMV DNA polymerase UL54 and human HSV DNA polymerase UL30 were produced as N-terminal MBP fusion of the full length, wild type recombinant proteins in order to enhance soluble expression in insect cell expression system. The proteins were expressed in sf9 insect cells via baculovirus transduction and cells were harvested after 48 hours. […] DNA polymerase activity was measured using a molecular beacon-based assay, as described in Ma et. al. […]
Assay readout: pIC50
Just the number, please; pIC50 means minus log10 of the concentration in mol/L.

Exercise: Sample O=C(NCc1ccc(Cl)cc1)c1ccc2n(c1=O)CCN(CC1(NS(=O)(=O)C3CC3)CC1)C2=O — what was its pIC50?
Solution: 6.63

Exercise: One more compound: N#Cc1ccc(CNC(=O)c2ccc3n(c2=O)CCN(CC2(S(=O)(=O)C4(CF)CC4)CC2)C3=O)cc1F
Solution: 9.52

Exercise: What do you get for N#Cc1ccc(CNC(=O)c2ccc3n(c2=O)CCN(CC2(S(=O)(=O)CC4CC4)CC2)C3=O)cc1F ?
Solution: 8.66

Exercise: Could you do the same for N#Cc1ccc(CNC(=O)c2ccc3n(c2=O)CCN(CC2(S(=O)(=O)C4COC4)CC2)C3=O)cc1F , please?
Solution: 8.74

Exercise: Now give it for COC1(S(=O)(=O)C2(CN3CCn4c(ccc(C(=O)NCc5ccc(C#N)cc5)c4=O)C3=O)CC2)CC1 too.
Solution: 8.96

Exercise: Same read-out for CC(C)(C)S(=O)(=O)C1(CN2CCn3c(ccc(C(=O)NCc4ccc(C#N)c(F)c4)c3=O)C2=O)CC1 ?
Solution: 9.22

Exercise: Now the compound N#Cc1ccc(CNC(=O)c2ccc3n(c2=O)CCN(CC2(S(=O)(=O)CC4(C(F)(F)F)CC4)CC2)C3=O)cc1F
Solution: 8.00

###

Assayed system: human HSV DNA polymerase UL30 (Human herpesvirus 1 (strain 17) (HHV-1) (Human herpes simplex virus 1), UniProt P04293)
Protocol details: HSV polymerase biochemical assay (molecular beacon-based)
pIC50: −log10 of the molar value.
Quick rule for you: pIC50 at 6 or higher means condition met, lower means condition not met.

Exercise: Quick check: does O=C(NCc1ccc(Cl)cc1)c1ccc2n(c1=O)CCN(CC1(S(=O)(=O)C3COC3)CC1)C2=O have pIC50 greater than or equal to 6?
Solution: condition met

Exercise: How about this compound: N#Cc1ccc(CNC(=O)c2cc(F)c3n(c2=O)CCN(CC2(S(=O)(=O)C4CC4)CC2)C3=O)cc1
Solution: condition met

Exercise: Record: CC(=O)N(C)CCN1CCn2c(ccc(C(=O)NCc3ccc(Cl)cc3)c2=O)C1=O
Solution: condition not met

Exercise: N#Cc1ccc(CNC(=O)c2ccc3n(c2=O)CCN(CC2(S(=O)(=O)C4CCNC4)CC2)C3=O)cc1 (stereo not drawn) , same question.
Solution: condition met

Exercise: Also check O=C(NCc1ccc(Cl)cc1)c1ccc2n(c1=O)CCN(CC1(S(=O)(=O)N3CC(F)(F)C3)CC1)C2=O
Solution: condition met

Exercise: Param item: N#Cc1ccc(CNC(=O)c2ccc3n(c2=O)CCN(CC2(S(=O)(=O)C4(CO)CC4)CC2)C3=O)cc1
Solution: condition met

Exercise: // query: CC(=O)NS(=O)(=O)C1(CN2CCn3c(ccc(C(=O)NCc4ccc(Cl)cc4)c3=O)C2=O)CC1
Solution: condition met

Exercise: Query Cc1cc(C(=O)NCc2ccc(Cl)cc2)c(=O)n2c1C(=O)N(CCS(C)(=O)=O)CC2 next
Solution: condition met

Exercise: Let us now turn to CN(CCN1CCn2c(c(C#CCO)cc(C(=O)NCc3ccc(Cl)cc3)c2=O)C1=O)S(C)(=O)=O
Solution: condition not met

Exercise: Now the same for CCS(=O)(=O)C1(CN2CCn3c(ccc(C(=O)NCc4ccc(Cl)cc4)c3=O)C2=O)CC1
Solution: condition met

Exercise: And CCS(=O)(=O)CCN1CCn2c(ccc(C(=O)NCc3ccc(Cl)cc3)c2=O)C1=O ?
Solution: condition met

Exercise: And for O=C(NCc1ccc(Cl)cc1)c1ccc2n(c1=O)CCN(CC1(N3CCOCC3=O)CC1)C2=O ?
Solution: condition not met

Exercise: Proceed to CC(CN1CCn2c(ccc(C(=O)NCc3ccc(C#N)cc3)c2=O)C1=O)S(=O)(=O)C1CC1 (stereo not drawn)
Solution: condition not met

Exercise: Please do the same for CC(C)(CO)S(=O)(=O)C1(CN2CCn3c(ccc(C(=O)NCc4ccc(Cl)cc4)c3=O)C2=O)CC1 as well.
Solution: condition met

Exercise: Now consider CN(CCN1CCn2c(c(C3CC3)cc(C(=O)NCc3ccc(Cl)cc3)c2=O)C1=O)S(C)(=O)=O .
Solution: condition not met
